The measured values listed here are drawn from patent US20120237518A1.

Molecular target: T1, recombinant human Trop-2/Fc/His fusion protein (manufactured by R&D) (human, UniProt P09758 27-274, limits assumed)
T1 construct: Bought reagent; also called Trop-2/Fc/His chimeric protein; recombinant Trop-2
T1 sequence: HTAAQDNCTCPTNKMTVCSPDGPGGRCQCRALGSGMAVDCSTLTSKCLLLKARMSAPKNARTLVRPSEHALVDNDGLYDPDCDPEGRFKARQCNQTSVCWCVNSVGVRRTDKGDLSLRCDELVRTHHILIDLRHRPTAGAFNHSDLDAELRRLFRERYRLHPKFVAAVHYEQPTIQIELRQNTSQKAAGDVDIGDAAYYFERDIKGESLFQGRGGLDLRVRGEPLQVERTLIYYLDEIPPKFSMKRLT
Assay: SPR (Biacore T100) on captured Trop-2/Fc/His; summary sentence of Table 6
pKd: −log10 of the molar value.
quantity name: pKd

KM4097 humanized antibody HV5LV0 (antibody, V domains shown, Expressed from pKANTEX93 (human constant regions) in FUT8 knockout CHO cells; no fucose attached) VH: QVQLVQSGAEVKKPGASVKVSCKASGYTFTIYWLGWVKQAPGQGLEWIGNIFPGSAYINYNEKFKGKATITADTSTSTAYMELSSLRSEDTAVYFCAREGSNSGYWGQGTLVTVSS VL: DIVMTQSPDSLAVSLGERATINCKSSQSLLNSGNQQNYLAWYQQKPGQPPKLLIYGASTRESGVPDRFSGSGSGTDFTLTISSLQAEDVAVYYCQSDHIYPYTFGQGTKLEIK	≥ 9.30
KM4097 humanized antibody HV4LV0 (antibody, V domains shown, Expressed from pKANTEX93 (human constant regions) in FUT8 knockout CHO cells; no fucose attached) VH: QVQLVQSGPEVKKPGASVKVSCKASGYTFTIYWLGWVKQAPGQGLEWIGNIFPGSAYINYNEKFKGRVTITADTSTSTAYMELSSLRSEDTAVYFCAREGSNSGYWGQGTLVTVSS VL: DIVMTQSPDSLAVSLGERATINCKSSQSLLNSGNQQNYLAWYQQKPGQPPKLLIYGASTRESGVPDRFSGSGSGTDFTLTISSLQAEDVAVYYCQSDHIYPYTFGQGTKLEIK	≥ 9.30

Now turn to the next binder.
What value of pKd has been reported for the following binder? KM4097 humanized antibody HV10LV4 (antibody, V domains shown, Expressed from pKANTEX93 (human constant regions) in FUT8 knockout CHO cells; no fucose attached) VH: QVQLVQSGPEVVKPGASVKISCKASGYTFTIYWLGWVKQAPGQGLEWIGNIFPGSAYINYNEKFKGKATLTADTSTSTAYMELSSLRSEDTAVYFCAREGSNSGYWGQGTLLTVSS VL: DIVMTQSPDSLAVSAGERVTMNCKSSQSLLNSGNQQNYLAWYQQKPGQPPKLLIYGASTRESGVPDRFSGSGSGTDFTLTISSVQAEDVAVYYCQSDHIYPYTFGQGTKLEIK ≥ 9.30
